Tested on: Fibroblast
Test: Multiplex assay against human fibroblast
Assay type: toxicity, cell-based
Conditions: 12 h, 1 µM, compound concentration 1 uM, replicate 1
The entries below come with measured Population Membrane Permeable-Phenotype (%) values attached.
recordedMetric: Population Membrane Permeable-Phenotype (%)

Cc1nc(Nc2n[nH]c3c2CN(C(=O)N[C@H](CN(C)C)c2ccccc2)C3(C)C)c2sccc2n1 6
CN(C)CC#Cc1ccc(OCCCc2sc(N3CCc4cccc(C(=O)Nc5nc6ccccc6s5)c4C3)nc2C(=O)O)c(F)c1 30
CNc1nc(NCc2ccc(NS(C)(=O)=O)cc2Cl)cc(-c2ccccn2)n1 22
CN(C)C(=O)/C(C#N)=C/c1ccc(-c2nc3cnc4[nH]ccc4c3n2C2CCCCC2)o1 26

Cited source for all entries: ChEMBL document CHEMBL4689842
